# assay-target: Casein kinase I isoform gamma-1 (Homo sapiens) (UniProt Q9HCP0);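 also: reported value is the mean inhibition of CK1 gamma-1 kinase activity across replicate measurements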
# Sequence (Q9HCP0 whole entry, looked up, canonical isoform): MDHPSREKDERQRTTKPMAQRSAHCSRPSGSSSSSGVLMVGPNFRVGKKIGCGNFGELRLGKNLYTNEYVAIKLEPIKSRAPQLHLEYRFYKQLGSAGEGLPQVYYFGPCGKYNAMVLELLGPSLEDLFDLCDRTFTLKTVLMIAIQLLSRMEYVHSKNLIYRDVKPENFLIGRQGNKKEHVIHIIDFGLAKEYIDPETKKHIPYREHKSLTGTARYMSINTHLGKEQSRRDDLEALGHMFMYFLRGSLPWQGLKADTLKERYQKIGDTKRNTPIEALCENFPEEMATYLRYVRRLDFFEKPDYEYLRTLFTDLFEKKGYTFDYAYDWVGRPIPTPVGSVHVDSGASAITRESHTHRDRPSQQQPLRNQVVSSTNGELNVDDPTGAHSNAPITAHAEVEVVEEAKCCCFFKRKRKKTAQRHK
# test-context: at 1 µM
Returns TRUE if the recorded inhibition is greater than or equal to 4%, and FALSE otherwise.

chemical-smiles	class-name
NS(=O)(=O)c1cccc(N/C=C2\C(=O)Nc3ccccc32)c1	TRUE
CS(=O)(=O)CCNCc1ccc(-c2ccc3ncnc(Nc4ccc(OCc5ccccc5)cc4)c3c2)o1	FALSE
O=C(O[C@H]1CN[C@H](C#Cc2cc3ncnc(Nc4ccc5c(cnn5Cc5ccccc5)c4)c3s2)C1)N1CCOCC1	FALSE
COc1c(C(N)=O)cc(-c2ccc(Cl)cc2)cc1-c1ccc(S(N)(=O)=O)cc1	TRUE
Cn1c(-c2nonc2N)nc2cnccc21	FALSE
O=C1Nc2ccccc2/C1=C1\CCc2cc(O)ccc21	TRUE
NS(=O)(=O)c1ccc(N/N=C2\C(=O)Nc3ccc(C(=O)NCc4ccncc4)cc32)cc1	TRUE
FC(F)(F)CNc1nccc(-c2cnn3ncccc23)n1	TRUE
O=C(Nc1n[nH]c2nnc(-c3cccnc3)cc12)C1CC1	FALSE
c1ccc(-c2n[nH]cc2-c2ccnc(-c3ccc(OCCn4ccnc4)cc3)c2)nc1	FALSE
